test system: tomato leaf transpiration; assay: Tomato leaf transpiration inhibition after foliar spray (LI-1600 porometer); type: in vivo, Tomato (variety: Rutgers); conditions: foliar spray, 250 ppm (S)-(+)-abscisic acid (1 mg); additives as in label; day 2
I'd appreciate it if you could supply Transpiration rate (% of control), 2 days after treatment values for the items below.

Task: Requested field: Transpiration rate (% of control), 2 days after treatment. Item: CC1=CC(=O)CC(C)(C)[C@@]1(O)/C=C/C(C)=C\C(=O)[O-].[K+] [Example 12, Potassium Salt of (S)-(+)-Abscisic Acid, reference compound]
Output: 64.9 % of control

Task: Requested field: Transpiration rate (% of control), 2 days after treatment. Item: CC1=CC(=O)CC(C)(C)[C@@]1(O)/C=C/C(C)=C\C(=O)[O-].[Rb+] [Example 1, Rubidium Salt of (S)-(+)-Abscisic Acid]
Output: 68.0 % of control

Task: Requested field: Transpiration rate (% of control), 2 days after treatment. Item: CC1=CC(=O)CC(C)(C)[C@@]1(O)/C=C/C(C)=C\C(=O)[O-].[Cs+] [Example 2, Cesium Salt of (S)-(+)-Abscisic Acid]
Output: 59.0 % of control

----------
tested on: tomato shoot fresh weight; test: Tomato shoot fresh weight 7 days after treatment (growth suppression); format: in vivo, Tomato (variety: Rutgers); conditions: 250 ppm (1 mg) (S)-(+)-abscisic acid, foliar spray; additives as in label
I'd appreciate it if you could supply Fresh weight (g) 7 days after treatment values for the items below.
Answer format: numeric, g implied, no suffix.

Task: Requested field: Fresh weight (g) 7 days after treatment. Item: CC1=CC(=O)CC(C)(C)[C@@]1(O)/C=C/C(C)=C\C(=O)[O-].[Rb+] [Example 1, Rubidium Salt of (S)-(+)-Abscisic Acid]
Output: 18.1

Task: Requested field: Fresh weight (g) 7 days after treatment. Item: CC1=CC(=O)CC(C)(C)[C@@]1(O)/C=C/C(C)=C\C(=O)[O-].[Cs+] [Example 2, Cesium Salt of (S)-(+)-Abscisic Acid]
Output: 15.3

Task: Requested field: Fresh weight (g) 7 days after treatment. Item: CC1=CC(=O)CC(C)(C)[C@@]1(O)/C=C/C(C)=C\C(=O)[O-].C[N+](C)(C)CCO [Example 5, Choline Salt of (S)-(+)-abscisic Acid]
Output: 17.5

Task: Requested field: Fresh weight (g) 7 days after treatment. Item: CC1=CC(=O)CC(C)(C)[C@@]1(O)/C=C/C(C)=C\C(=O)O.CCCCN(CCCC)CCCC [Example 14, reference compound]
Output: 15.3

Task: Requested field: Fresh weight (g) 7 days after treatment. Item: `CC1=CC(=O)CC(C)(C)[C@@]1(O)/C=C/C(C)=C\C(=O)[O-].CCCC[N+](CCCC)(CCCC)CCCC`
Output: 14.8

----------
I'd appreciate it if you could supply Transpiration rate (% of control), Average of 3 days after treatment values for the items below.
tested on: tomato leaf transpiration; experiment: Tomato leaf transpiration inhibition after foliar spray (LI-1600 porometer); format: in vivo, Tomato (variety: Rutgers); conditions: (S)-(+)-abscisic acid dose 3 mg, foliar spray

Task: Requested field: Transpiration rate (% of control), Average of 3 days after treatment. Item: CC1=CC(=O)CC(C)(C)[C@@]1(O)/C=C/C(C)=C\C(=O)[O-].C[N+](C)(C)CCO [Example 5, Choline Salt of (S)-(+)-abscisic Acid]
Output: 53 % of control

Task: Requested field: Transpiration rate (% of control), Average of 3 days after treatment. Item: CC1=CC(=O)CC(C)(C)[C@@]1(O)/C=C/C(C)=C\C(=O)O.CN(C)C(=N)N(C)C [Example 6]
Output: 42 % of control

Task: Requested field: Transpiration rate (% of control), Average of 3 days after treatment. Item: CC1=CC(=O)CC(C)(C)[C@@]1(O)/C=C/C(C)=C\C(=O)[O-].C[N+](C)(C)C [Example 3]
Output: 52 % of control

Task: Requested field: Transpiration rate (% of control), Average of 3 days after treatment. Item: CC1=CC(=O)CC(C)(C)[C@@]1(O)/C=C/C(C)=C\C(=O)O.CN(C)C [Example 13, reference compound]
Output: 65 % of control

Task: Requested field: Transpiration rate (% of control), Average of 3 days after treatment. Item: CC1=CC(=O)CC(C)(C)[C@@]1(O)/C=C/C(C)=C\C(=O)[O-].[K+] [Example 12, Potassium Salt of (S)-(+)-Abscisic Acid, reference compound]
Output: 55 % of control

Task: Requested field: Transpiration rate (% of control), Average of 3 days after treatment. Item: CC1=CC(=O)CC(C)(C)[C@@]1(O)/C=C/C(C)=C\C(=O)[O-].[Rb+] [Example 1, Rubidium Salt of (S)-(+)-Abscisic Acid]
Output: 54 % of control

Task: Requested field: Transpiration rate (% of control), Average of 3 days after treatment. Item: CC1=CC(=O)CC(C)(C)[C@@]1(O)/C=C/C(C)=C\C(=O)O.CCCCN(CCCC)CCCC [Example 14, reference compound]
Output: 53 % of control

Task: Requested field: Transpiration rate (% of control), Average of 3 days after treatment. Item: CC1=CC(=O)CC(C)(C)[C@@]1(O)/C=C/C(C)=C\C(=O)[O-].[Cs+] [Example 2, Cesium Salt of (S)-(+)-Abscisic Acid]
Output: 47 % of control

----------
test system: tomato leaf transpiration; experiment: Tomato leaf transpiration inhibition after foliar spray (LI-1600 porometer); type: in vivo, Tomato (variety: Rutgers); settings: foliar spray, 250 ppm (S)-(+)-abscisic acid (1 mg); additives as in label; day 2
I'd appreciate it if you could supply Transpiration rate (% of control), 2 days after treatment values for the items below.

Task: Requested field: Transpiration rate (% of control), 2 days after treatment. Item: CC1=CC(=O)CC(C)(C)[C@@]1(O)/C=C/C(C)=C\C(=O)[O-].C[N+](C)(C)C [Example 3]
Output: 63.6 % of control

Task: Requested field: Transpiration rate (% of control), 2 days after treatment. Item: CC1=CC(=O)CC(C)(C)[C@@]1(O)/C=C/C(C)=C\C(=O)[O-].C[N+](C)(C)CCO [Example 5, Choline Salt of (S)-(+)-abscisic Acid]
Output: 63.7 % of control

Task: Requested field: Transpiration rate (% of control), 2 days after treatment. Item: CC1=CC(=O)CC(C)(C)[C@@]1(O)/C=C/C(C)=C\C(=O)O.CN(C)C [Example 13, reference compound]
Output: 73.6 % of control

Task: Requested field: Transpiration rate (% of control), 2 days after treatment. Item: CC1=CC(=O)CC(C)(C)[C@@]1(O)/C=C/C(C)=C\C(=O)O.CCCCN(CCCC)CCCC [Example 14, reference compound]
Output: 71.3 % of control

----------
test system: tomato leaf transpiration; experiment: Tomato leaf transpiration inhibition after foliar spray (LI-1600 porometer); assay type: in vivo, Tomato (variety: Rutgers); details: foliar spray, 250 ppm (S)-(+)-abscisic acid (1 mg); additives as in label; day 4
reported-endpoint: Transpiration rate (% of control), 4 days after treatment

Task: Requested field: Transpiration rate (% of control), 4 days after treatment. Item: CC1=CC(=O)CC(C)(C)[C@@]1(O)/C=C/C(C)=C\C(=O)[O-].C[N+](C)(C)CCO [Example 5, Choline Salt of (S)-(+)-abscisic Acid]
Output: 79.0 % of control

Task: Requested field: Transpiration rate (% of control), 4 days after treatment. Item: CC1=CC(=O)CC(C)(C)[C@@]1(O)/C=C/C(C)=C\C(=O)[O-].[Rb+] [Example 1, Rubidium Salt of (S)-(+)-Abscisic Acid]
Output: 88.2 % of control

Task: Requested field: Transpiration rate (% of control), 4 days after treatment. Item: `CC1=CC(=O)CC(C)(C)[C@@]1(O)/C=C/C(C)=C\C(=O)[O-].C[N+](C)(C)C`
Output: 78.6 % of control

Task: Requested field: Transpiration rate (% of control), 4 days after treatment. Item: CC1=CC(=O)CC(C)(C)[C@@]1(O)/C=C/C(C)=C\C(=O)[O-].[K+] [Example 12, Potassium Salt of (S)-(+)-Abscisic Acid, reference compound]
Output: 90.9 % of control

Task: Requested field: Transpiration rate (% of control), 4 days after treatment. Item: CC1=CC(=O)CC(C)(C)[C@@]1(O)/C=C/C(C)=C\C(=O)O.CN(C)C [Example 13, reference compound]
Output: 88.2 % of control

Task: Requested field: Transpiration rate (% of control), 4 days after treatment. Item: CC1=CC(=O)CC(C)(C)[C@@]1(O)/C=C/C(C)=C\C(=O)O.CCCCN(CCCC)CCCC [Example 14, reference compound]
Output: 87.4 % of control

Task: Requested field: Transpiration rate (% of control), 4 days after treatment. Item: CC1=CC(=O)CC(C)(C)[C@@]1(O)/C=C/C(C)=C\C(=O)[O-].[Cs+] [Example 2, Cesium Salt of (S)-(+)-Abscisic Acid]
Output: 77.8 % of control
